# testedSystem: HTR1D (Homo sapiens)
# assayInfo: cell-based
# Design: species or system HEK293; TRUPATH BRET2 G-protein dissociation; antagonist mode against agonist EC80
# measurementConditions: N-Desmethyl Xanomeline, Assay=GoB; agonist mode
experimentalEndpoint: EC50 (µM)
The figure you give is taken to be in µM; do not add the unit.

Return reported EC50; argument: CCCCCCOc1nsnc1C1=CCCNC1 [N-desmethylxanomeline]
0.0258

###

H1 (Homo sapiens) measurements of pKi, listed per entry.
Sequence (P35367 whole entry): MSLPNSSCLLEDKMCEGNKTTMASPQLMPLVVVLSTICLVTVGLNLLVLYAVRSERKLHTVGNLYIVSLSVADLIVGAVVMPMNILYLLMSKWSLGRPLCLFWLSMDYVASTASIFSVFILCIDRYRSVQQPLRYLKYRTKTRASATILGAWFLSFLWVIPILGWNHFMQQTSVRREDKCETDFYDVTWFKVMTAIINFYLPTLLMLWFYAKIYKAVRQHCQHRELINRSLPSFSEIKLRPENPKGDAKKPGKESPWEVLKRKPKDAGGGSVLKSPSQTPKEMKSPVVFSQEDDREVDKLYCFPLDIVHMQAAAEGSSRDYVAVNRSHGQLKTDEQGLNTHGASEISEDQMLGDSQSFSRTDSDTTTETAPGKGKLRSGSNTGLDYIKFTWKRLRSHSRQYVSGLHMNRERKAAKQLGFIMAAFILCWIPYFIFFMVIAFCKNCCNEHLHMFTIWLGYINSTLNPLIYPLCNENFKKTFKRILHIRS
The read-out pKi is expressed as -log10 of concentration in moles per litre.

Return reported pKi; argument: CCCCCCOc1nsnc1C1=CCCN(C)C1 [Xanomeline]
7.00

Return reported pKi; argument: CCCCCCOc1nsnc1C1=CCCNC1 [N-desmethylxanomeline]
6.14

###

# testedSystem: HTR1D (Homo sapiens, UniProt P28221)
# Sequence (P28221 whole entry): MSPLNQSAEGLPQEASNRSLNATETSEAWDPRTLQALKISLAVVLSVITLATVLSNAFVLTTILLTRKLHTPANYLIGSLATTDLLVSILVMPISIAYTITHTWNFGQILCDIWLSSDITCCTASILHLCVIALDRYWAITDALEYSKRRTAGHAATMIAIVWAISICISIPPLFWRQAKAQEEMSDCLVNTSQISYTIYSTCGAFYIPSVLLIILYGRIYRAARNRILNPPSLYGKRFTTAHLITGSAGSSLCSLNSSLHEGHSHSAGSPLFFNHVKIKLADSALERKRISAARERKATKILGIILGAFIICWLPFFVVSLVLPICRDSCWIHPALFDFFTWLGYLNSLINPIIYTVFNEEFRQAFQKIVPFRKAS
# assayInfo: cell-based
# Set-up: species or system HEK293; TRUPATH BRET2 G-protein dissociation; antagonist mode against agonist EC80
# measurementConditions: N-Desmethyl Xanomeline, Assay=Gi2; agonist mode
experimentalEndpoint: pEC50
The read-out pEC50 is expressed as -log10 of concentration in moles per litre.

State its pEC50 on HTR1D (Homo sapiens, UniProt P28221): CCCCCCOc1nsnc1C1=CCCNC1 [N-desmethylxanomeline]
7.44

###

# testedSystem: HRH3 (Homo sapiens, UniProt Q9Y5N1)
# Sequence (Q9Y5N1 whole entry): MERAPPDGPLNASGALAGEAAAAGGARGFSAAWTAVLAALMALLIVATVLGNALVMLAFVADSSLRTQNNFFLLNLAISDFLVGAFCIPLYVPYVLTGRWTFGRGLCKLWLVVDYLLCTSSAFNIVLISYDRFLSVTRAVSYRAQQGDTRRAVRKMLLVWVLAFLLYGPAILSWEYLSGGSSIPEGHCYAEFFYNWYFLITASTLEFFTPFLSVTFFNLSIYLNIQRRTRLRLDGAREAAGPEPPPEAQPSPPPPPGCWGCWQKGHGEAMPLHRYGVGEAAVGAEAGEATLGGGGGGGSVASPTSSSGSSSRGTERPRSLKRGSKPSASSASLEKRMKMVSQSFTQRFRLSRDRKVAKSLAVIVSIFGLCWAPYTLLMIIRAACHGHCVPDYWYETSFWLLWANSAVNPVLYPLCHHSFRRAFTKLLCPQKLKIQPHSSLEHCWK
# assayInfo: cell-based
# Parameters: species or system HEK293; TRUPATH BRET2 G-protein dissociation; antagonist mode against agonist EC80
# measurementConditions: Xanomeline, Assay=GoB; agonist mode
experimentalEndpoint: EC50 (nM)
The figure you give is taken to be in nM; do not add the unit.

Return reported EC50; argument: CCCCCCOc1nsnc1C1=CCCN(C)C1 [Xanomeline]
2640

###

# testedSystem: α1D (Homo sapiens)
# Construct: gene ADRA1D
# Sequence (P25100 whole entry): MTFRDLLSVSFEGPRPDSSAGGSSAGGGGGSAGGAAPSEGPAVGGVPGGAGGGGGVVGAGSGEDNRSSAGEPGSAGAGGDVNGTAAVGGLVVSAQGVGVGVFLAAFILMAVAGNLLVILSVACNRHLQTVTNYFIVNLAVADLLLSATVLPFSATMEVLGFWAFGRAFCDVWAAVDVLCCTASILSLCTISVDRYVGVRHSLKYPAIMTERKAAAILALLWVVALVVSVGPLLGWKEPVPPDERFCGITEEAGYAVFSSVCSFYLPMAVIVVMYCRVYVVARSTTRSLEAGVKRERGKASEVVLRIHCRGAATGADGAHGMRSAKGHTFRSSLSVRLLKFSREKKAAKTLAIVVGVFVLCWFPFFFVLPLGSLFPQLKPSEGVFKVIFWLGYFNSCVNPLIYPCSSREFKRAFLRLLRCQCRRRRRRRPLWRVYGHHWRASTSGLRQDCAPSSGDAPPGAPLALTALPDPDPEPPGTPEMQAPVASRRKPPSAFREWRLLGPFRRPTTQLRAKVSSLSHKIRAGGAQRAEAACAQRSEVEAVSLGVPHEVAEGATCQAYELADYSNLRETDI
# assayInfo: biochemical
# Design: species or system HEK293; PDSP competitive radioligand binding, membranes of transfected HEK293 cells, filtration, Ki by Cheng-Prusoff
# Description: Competitive radioligand binding assays were performed at the NIMH Psychoactive Drug Screening Program (PDSP) using membranes from transiently transfected HEK293 cells in 96-well format as described. […] Equilibrium inhibition constants (Ki) were calculated from fitted IC50 values using the Cheng–Prusoff equation [14] with the assay-specific radioligand concentration and Kd. […] ND=not determined.
experimentalEndpoint: Ki

Return reported Ki; argument: CCCCCCOc1nsnc1C1=CCCN(C)C1 [Xanomeline]
> 10 µM

###

Kindly supply the reported pKi values for the records listed here.
# testedSystem: UniProt P28222
# Sequence (P28222 whole entry): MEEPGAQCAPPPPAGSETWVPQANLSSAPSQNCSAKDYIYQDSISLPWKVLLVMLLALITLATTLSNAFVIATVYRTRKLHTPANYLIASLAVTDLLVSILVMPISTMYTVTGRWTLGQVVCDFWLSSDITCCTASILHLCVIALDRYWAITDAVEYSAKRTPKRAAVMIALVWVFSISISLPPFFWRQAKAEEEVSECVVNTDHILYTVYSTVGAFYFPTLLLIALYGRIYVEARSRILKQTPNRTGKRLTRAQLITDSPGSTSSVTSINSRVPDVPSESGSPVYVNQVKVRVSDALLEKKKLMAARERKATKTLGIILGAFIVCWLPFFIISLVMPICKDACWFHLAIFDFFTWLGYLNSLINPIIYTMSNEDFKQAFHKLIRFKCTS
The read-out pKi is expressed as -log10 of concentration in moles per litre.

Return reported pKi; argument: CCCCCCOc1nsnc1C1=CCCNC1
6.75

Return reported pKi; argument: CCCCCCOc1nsnc1C1=CCCN(C)C1
6.14

###

pKi: −log10 of the molar value.
experimentalEndpoint: pKi

State its pKi on HRH4 (Homo sapiens): CCCCCCOc1nsnc1C1=CCCN(C)C1 [Xanomeline]
Sequence (Q9H3N8 whole entry): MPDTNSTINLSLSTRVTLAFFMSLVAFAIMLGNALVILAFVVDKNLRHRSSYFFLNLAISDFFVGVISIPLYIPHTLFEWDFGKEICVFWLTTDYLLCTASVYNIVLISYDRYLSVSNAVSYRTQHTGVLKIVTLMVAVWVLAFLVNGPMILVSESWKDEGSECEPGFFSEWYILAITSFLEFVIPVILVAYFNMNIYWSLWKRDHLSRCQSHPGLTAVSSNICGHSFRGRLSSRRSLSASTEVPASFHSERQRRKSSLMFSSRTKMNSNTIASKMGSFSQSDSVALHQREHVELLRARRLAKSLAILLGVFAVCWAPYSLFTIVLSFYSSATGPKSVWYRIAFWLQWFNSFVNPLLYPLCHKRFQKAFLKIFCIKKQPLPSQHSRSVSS
< 5.00

###

# testedSystem: HTR1A (Homo sapiens, UniProt P08908)
# Sequence (P08908 whole entry): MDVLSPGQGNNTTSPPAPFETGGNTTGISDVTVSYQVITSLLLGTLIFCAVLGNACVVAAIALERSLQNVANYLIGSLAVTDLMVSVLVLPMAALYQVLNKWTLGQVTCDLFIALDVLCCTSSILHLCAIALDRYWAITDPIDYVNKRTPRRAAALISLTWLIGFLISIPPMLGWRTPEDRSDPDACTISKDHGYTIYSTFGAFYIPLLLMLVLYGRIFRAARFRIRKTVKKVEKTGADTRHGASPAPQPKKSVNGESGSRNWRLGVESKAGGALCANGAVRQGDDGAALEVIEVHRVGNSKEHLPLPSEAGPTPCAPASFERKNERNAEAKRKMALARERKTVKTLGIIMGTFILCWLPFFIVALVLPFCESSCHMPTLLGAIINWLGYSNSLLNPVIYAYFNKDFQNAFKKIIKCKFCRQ
# assayInfo: cell-based
# Design: species or system HEK293; TRUPATH BRET2 G-protein dissociation; antagonist mode against agonist EC80
# measurementConditions: N-Desmethyl Xanomeline, Assay=GoB; agonist mode
experimentalEndpoint: pEC50
The read-out pEC50 is expressed as -log10 of concentration in moles per litre.

Return reported pEC50; argument: CCCCCCOc1nsnc1C1=CCCNC1 [N-desmethylxanomeline]
5.70
